Listing: Relative Kd of selected binders
test.system: T1, fH67 (UniProt P08603 321-443)
T1 construct: domain: fH67; Flowed as analyte over immobilised fHbps in SPR; also called factor H
T1 sequence: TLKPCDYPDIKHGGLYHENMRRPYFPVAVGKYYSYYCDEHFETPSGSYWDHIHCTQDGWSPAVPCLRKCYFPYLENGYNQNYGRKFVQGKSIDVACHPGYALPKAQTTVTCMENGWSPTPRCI
test.details: SPR, fHbp immobilised on sensor chip, fH67 flowed over
Please answer using a numeric value trailed by its unit.

binder | Relative Kd
WT V2 fHbp (other, also called wild type V2 fHbp; V2WT) CSSGGGGVAADIGAGLADALTAPLDHKDKSLQSLTLDQSVRKNEKLKLAAQGAEKTYGNGDSLNTGKLKNDKVSRFDFIRQIEVDGQLITLESGEFQIYKQDHSAVVALQIEKINNPDKIDSLINQRSFLVSGLGGEHTAFNQLPSGKAEYHGKAFSSDDPNGRLHYSIDFTKKQGYGRIEHLKTPEQNVELASAELKADEKSHAVILGDTRYGGEEKGTYHLALFGDRAQEIAGSATVKIREKVHEIGIAGKQ | 1 fold against WT V2 fHbp
M5 V2 fHbp (S35G/D107S/L114F/S137G/G138D) (other) CSSGGGGVAADIGAGLADALTAPLDHKDKGLQSLTLDQSVRKNEKLKLAAQGAEKTYGNGDSLNTGKLKNDKVSRFDFIRQIEVDGQLITLESGEFQIYKQSHSAVVAFQIEKINNPDKIDSLINQRSFLVGDLGGEHTAFNQLPSGKAEYHGKAFSSDDPNGRLHYSIDFTKKQGYGRIEHLKTPEQNVELASAELKADEKSHAVILGDTRYGGEEKGTYHLALFGDRAQEIAGSATVKIREKVHEIGIAGKQ | 3.84 fold against WT V2 fHbp
M4B V2 fHbp (S35G/L114F/S137G/G138D) (other) CSSGGGGVAADIGAGLADALTAPLDHKDKGLQSLTLDQSVRKNEKLKLAAQGAEKTYGNGDSLNTGKLKNDKVSRFDFIRQIEVDGQLITLESGEFQIYKQDHSAVVAFQIEKINNPDKIDSLINQRSFLVGDLGGEHTAFNQLPSGKAEYHGKAFSSDDPNGRLHYSIDFTKKQGYGRIEHLKTPEQNVELASAELKADEKSHAVILGDTRYGGEEKGTYHLALFGDRAQEIAGSATVKIREKVHEIGIAGKQ | 3.92 fold against WT V2 fHbp

Next binder, please.
For record M6 V2 fHbp (S35G/D107S/V112T/L114F/S137G/G138D) (other) CSSGGGGVAADIGAGLADALTAPLDHKDKGLQSLTLDQSVRKNEKLKLAAQGAEKTYGNGDSLNTGKLKNDKVSRFDFIRQIEVDGQLITLESGEFQIYKQSHSAVTAFQIEKINNPDKIDSLINQRSFLVGDLGGEHTAFNQLPSGKAEYHGKAFSSDDPNGRLHYSIDFTKKQGYGRIEHLKTPEQNVELASAELKADEKSHAVILGDTRYGGEEKGTYHLALFGDRAQEIAGSATVKIREKVHEIGIAGKQ the listed Relative Kd is 19.3 fold against WT V2 fHbp
